- Tested on: SK-OV-3 ovarian
- PROTOCOL SUMMARY: NCI tumour cell line growth inhibition, 48 h

>  <COMPOUND>
COC(=O)C1(Cc2ccccc2C)Cc2ccc(C)cc2C1=O (stereo not drawn)

>  <TGI>
> 100 µM

$$$$
>  <COMPOUND>
COc1ccc2c(c1)C(=O)/C(=C/c1ccc(OCC(=O)c3ccc(Cl)cc3)cc1)O2

>  <TGI>
> 100 µM

$$$$
>  <COMPOUND>
COC(=O)Oc1nn(C(=O)OC)c(=O)c2ccccc12 (tested in a mixture with another compound)

>  <TGI>
> 100 µM

$$$$
>  <COMPOUND>
Cn1c(=O)c2c(nc3n2C(CCl)CO3)n(C)c1=O (stereo not drawn)

>  <TGI>
> 100 µM

$$$$
>  <COMPOUND>
CC(=O)Nc1ccc2c(c1)C(=Nc1ccc(C(=O)O)cc1)c1ccccc1-2

>  <TGI>
> 100 µM

$$$$
>  <COMPOUND>
OCCC#Cc1ccccc1C#Cc1ccccc1

>  <TGI>
39.4 µM

$$$$
>  <COMPOUND>
N=C(N)c1ccc(-c2ccc(-c3ccccc3)o2)cc1

>  <TGI>
10.2 µM

$$$$
>  <COMPOUND>
O=C1NCC2=C1CCC1c3ccccc3CCN21 (stereo not drawn)

>  <TGI>
> 100 µM

$$$$

----------
Measured TGI of individual entries
- Test system: SK-OV-3 ovarian
- PROTOCOL SUMMARY: NCI tumour cell line growth inhibition, 48 h
METRIC: TGI

>  <MOLECULE>
Clc1ccc(C2=NN(c3ccccc3)C3c4cc(Br)ccc4OCC23)cc1 (stereo not given)

>  <RECORDED VALUE>
> 100 µM

$$$$
>  <MOLECULE>
COC1(CCO)CC=CCC1(CCO)OC (stereo not given)

>  <RECORDED VALUE>
> 100 µM

$$$$
>  <MOLECULE>
CC1(C)CC(C2CC(C)(C)CC(C)(C)[C@H]2O)[C@@H](O)C(C)(C)C1 (stereo not given in full)

>  <RECORDED VALUE>
> 100 µM

$$$$
>  <MOLECULE>
CCOc1ccc(NC(=O)/C(=C/c2ccccc2)C(C)=O)cc1

>  <RECORDED VALUE>
40.7 µM

$$$$
>  <MOLECULE>
Brc1ccc(C2(N3CCCCC3)CCCCC2)s1

>  <RECORDED VALUE>
> 100 µM

$$$$
>  <MOLECULE>
CC(=O)C(CN1CCOCC1)C(c1ccccc1)c1c(O)c2ccccc2oc1=O (stereo not given)

>  <RECORDED VALUE>
> 100 µM

$$$$
>  <MOLECULE>
CSc1nc2ccccc2c(=O)n1-c1cccc(C)c1

>  <RECORDED VALUE>
> 100 µM

$$$$
>  <MOLECULE>
COc1cc2nc(-c3ccc(Cl)cc3)cc(OCCCN3CCC(O)CC3)c2cc1OC

>  <RECORDED VALUE>
21.8 µM

$$$$
>  <MOLECULE>
COC(=O)CC(CC(=O)C(=O)OC)C(=O)OC (stereo not given)

>  <RECORDED VALUE>
> 100 µM

$$$$
>  <MOLECULE>
CCOC(=O)c1c(-c2ccccc2)[nH]c2ccccc2c1=O

>  <RECORDED VALUE>
> 100 µM

$$$$
>  <MOLECULE>
Nc1cc2c3c(cccc3c1)C(=O)N(CCN1CCN(CCN3C(=O)c4cccc5cc(N)cc(c45)C3=O)CC1)C2=O

>  <RECORDED VALUE>
> 100 µM

$$$$
>  <MOLECULE>
O=C(CN1c2ccccc2Sc2ccccc21)n1cnc2ccccc21

>  <RECORDED VALUE>
> 100 µM

$$$$
>  <MOLECULE>
COC(=O)C1(c2ccc(OC)cc2)NC(c2ccccc2)C2C(=O)N(c3ccc(OC)cc3)C(=O)C21 (stereo not given)

>  <RECORDED VALUE>
> 100 µM

$$$$
>  <MOLECULE>
CCOC(=O)C(NC(=O)Nc1ccccc1F)(OC)C(F)(F)F (stereo not given)

>  <RECORDED VALUE>
> 100 µM

$$$$
>  <MOLECULE>
Nc1ncn([C@@H]2C=C(CO)C(O)C2O)c(=O)n1 (stereo not given in full)

>  <RECORDED VALUE>
> 100 µM

$$$$
>  <MOLECULE>
COc1ccc(C(=O)Nc2ccccc2)cc1[N+](=O)[O-]

>  <RECORDED VALUE>
> 100 µM

$$$$
>  <MOLECULE>
CC1(C)OCC(C2OC(On3nnc4ccc(Cl)cc43)C3OC(C)(C)OC23)O1 (stereo not given)

>  <RECORDED VALUE>
> 100 µM

$$$$
>  <MOLECULE>
CCN=C(N)CSS(=O)(=O)O

>  <RECORDED VALUE>
> 100 µM

$$$$
>  <MOLECULE>
S=c1nc(/C=C/c2ccc(Cl)c(Cl)c2)[nH][nH]1

>  <RECORDED VALUE>
> 100 µM

$$$$
>  <MOLECULE>
O=S(=O)(Nc1ccc2ccc3cccc4ccc1c2c34)c1ccccc1

>  <RECORDED VALUE>
> 100 µM

$$$$
>  <MOLECULE>
Nc1nc(Cl)cc(NCC2(CO)CC(O)C2)n1 (stereo not given)

>  <RECORDED VALUE>
> 100 µM

$$$$
>  <MOLECULE>
CSc1ccc(C=C2N=C(c3ccccc3)N(c3cc(C(=O)c4ccccc4)ccc3N3C(=O)/C(=C/c4ccc(SC)cc4)N=C3c3ccccc3)C2=O)cc1

>  <RECORDED VALUE>
> 100 µM

$$$$
>  <MOLECULE>
C=C1C(=O)OC2C3C(=C)[C@@H](OC(C)=O)CC3C(C)=CC(OC(=O)C(C)(O)C(C)OC(C)=O)[C@@H]12 (stereo not given in full)

>  <RECORDED VALUE>
> 100 µM

$$$$
>  <MOLECULE>
c1ccc(CNc2nc(Nc3ccc(-c4nc5ccccc5[nH]4)cc3)c3cn[nH]c3n2)cc1

>  <RECORDED VALUE>
17.8 µM

$$$$
>  <MOLECULE>
O=[N+]([O-])c1ccc(N=Nc2c(O)[nH]c3ccc(Br)cc23)c([N+](=O)[O-])c1

>  <RECORDED VALUE>
34.7 µM

$$$$
>  <MOLECULE>
Cn1cc(-c2ccc3c(c2)ncn3-c2ccc(CC(=O)Nc3cc(C(C)(C)C)on3)cc2)cn1

>  <RECORDED VALUE>
4.33 µM

$$$$
>  <MOLECULE>
COc1ccc2[nH]c3c(c2c1)CCc1ccccc1-3

>  <RECORDED VALUE>
> 100 µM

$$$$
>  <MOLECULE>
CCOC(=O)/C(=C/c1c(-c2ccccc2)[nH]c2ccccc12)C(=O)c1ccc(Cl)cc1

>  <RECORDED VALUE>
> 100 µM

$$$$
>  <MOLECULE>
COC1C2c3ccccc3C(C#N)(Cc3ccc4c(c32)OCO4)N1C(=O)c1ccccc1 (stereo not given)

>  <RECORDED VALUE>
> 100 µM

$$$$
>  <MOLECULE>
CC(=O)[CH-]C(=O)c1ccccc1.CC(=O)[CH-]C(=O)c1ccccc1.[O-]Cc1cccs1.[O-]Cc1cccs1.[Ti+4]

>  <RECORDED VALUE>
> 100 µM

$$$$
>  <MOLECULE>
NC(=O)OCc1c(O)c2c(c(O)c1COC(N)=O)C(=O)C=CC2=O

>  <RECORDED VALUE>
> 100 µM

$$$$
>  <MOLECULE>
COc1ccc(Nc2nc3c(N)cc(C(F)(F)F)cc3nc2-c2ccccc2)cc1

>  <RECORDED VALUE>
> 100 µM

$$$$
>  <MOLECULE>
CCCCCCCCCCCCCCCc1ccc(C(=O)C[n+]2ccccc2)cc1

>  <RECORDED VALUE>
3.34 µM

$$$$
>  <MOLECULE>
C=C1CCC2C3(C)COC(c4cccc(Cl)c4)OC3CCC2(C)C1/C=C/C1=CCOC1=O (stereo not given)

>  <RECORDED VALUE>
> 100 µM

$$$$
>  <MOLECULE>
CC/C(=C(/CC)c1ccc(OP(=O)([O-])[O-])cc1)c1ccc(OP(=O)([O-])[O-])cc1.N.N.N.N.[Pt+4].[Pt+4]

>  <RECORDED VALUE>
17 µM

$$$$
>  <MOLECULE>
CN(C)c1ccc(C=Nc2ccc(-c3nc4ccccc4o3)cc2)cc1

>  <RECORDED VALUE>
> 100 µM

$$$$
>  <MOLECULE>
CCOP(=O)(OCC)OC1CC(n2cnc3c(N(CC)CC)ncnc32)OC1CO[Si](C)(C)C(C)(C)C (stereo not given)

>  <RECORDED VALUE>
31.6 µM

$$$$
>  <MOLECULE>
COc1cc(-c2[nH]ncc2CCCC(=O)Nc2ccccc2[N+](=O)[O-])ccc1O

>  <RECORDED VALUE>
> 100 µM

$$$$
>  <MOLECULE>
C=C(CNCCc1ccc(O)cc1)[C@@H]1CC[C@]2(CO)CC[C@]3(C)[C@H](CC[C@@H]4[C@@]5(C)CCC(NCCO)C(C)(C)[C@@H]5CC[C@]43C)[C@@H]12 (stereo not given in full)

>  <RECORDED VALUE>
3.52 µM

$$$$
>  <MOLECULE>
CCOC(=O)/C(C#N)=N\Nc1ccc(-n2c(C)nc3ccc(Br)cc3c2=O)cc1

>  <RECORDED VALUE>
> 100 µM

$$$$
